molecular target: Cytochrome P450 1A2 (Homo sapiens) (UniProt P05177); assay: Cytochrome panel assay with activity outcomes; details: recombinant CYP, pro-luciferin dealkylation, luminescence, p450-cyp1a2; series mostly up to 57.1 µM
Sequence (P05177 whole entry, looked up): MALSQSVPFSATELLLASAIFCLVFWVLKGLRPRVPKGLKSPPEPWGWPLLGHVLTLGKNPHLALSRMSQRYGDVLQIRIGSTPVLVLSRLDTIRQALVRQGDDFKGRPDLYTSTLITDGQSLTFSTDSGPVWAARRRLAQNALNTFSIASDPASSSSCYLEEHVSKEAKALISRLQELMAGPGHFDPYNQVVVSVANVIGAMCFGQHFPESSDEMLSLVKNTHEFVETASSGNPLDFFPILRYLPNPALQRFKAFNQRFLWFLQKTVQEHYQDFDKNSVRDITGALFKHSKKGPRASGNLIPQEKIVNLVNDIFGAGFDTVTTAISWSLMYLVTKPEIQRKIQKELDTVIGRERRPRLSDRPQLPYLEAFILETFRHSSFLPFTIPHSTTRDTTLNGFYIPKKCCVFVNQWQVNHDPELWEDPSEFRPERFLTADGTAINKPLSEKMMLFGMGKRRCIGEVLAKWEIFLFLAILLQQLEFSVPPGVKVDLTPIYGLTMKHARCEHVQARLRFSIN
Hit rate of the full screen: of about 16,000 compounds, about 5,700 (36%) were called active. About 24% were inconclusive and are not listed. Calls follow the shape of the dose curve; as a rule, active = well fitted curve in the direction sought with a large enough effect; inconclusive = small, poorly fitted or top-dose-only effect, or effect the other way; inactive = no such curve, though single readings can be large or run the other way. The list shows a part of the results.
The categories you may choose from are 1 for active, -1 for inactive

Past entries and their recorded results:
# compound, test target, label
rows = [
    ("CNC(=O)c1c(I)c(C(=O)NCC(=O)Nc2c(I)c(C(=O)O)c(I)c(C(=O)NCCO)c2I)c(I)c(N(C)C(C)=O)c1I", "Cytochrome P450 1A2 (Homo sapiens) (UniProt P05177)", -1),
    ("CC(C)N(CCC(=O)c1ccc2ccccc2c1)Cc1ccccc1", "Cytochrome P450 1A2 (Homo sapiens) (UniProt P05177)", 1),
    ("CC(C)N(CCNC(=O)C1CCC(=O)N1Cc1ccc(F)cc1)Cc1ccccc1 (stereo unspecified)", "Cytochrome P450 1A2 (Homo sapiens) (UniProt P05177)", -1),
    ("Cc1ccc2nc(NC(=O)CSCC(=O)OCC(=O)c3ccc(Br)cc3)sc2c1", "Cytochrome P450 1A2 (Homo sapiens) (UniProt P05177)", 1),
    ("O=S(=O)(NC1CCN(Cc2ccccc2)CC1)c1cccc2cccnc12", "Cytochrome P450 1A2 (Homo sapiens) (UniProt P05177)", -1),
]

For this compound, state the assay outcome: Cc1nc2ccc(S(=O)(=O)NC(CC(C)C)C(=O)O)cc2s1 (stereo unspecified)
-1

For this compound, state the assay outcome: Nc1ccccc1S[C@@H](C[N+](=O)[O-])c1ccc2c(c1)OCO2
1

For this compound, state the assay outcome: CSc1nnnc2ccccc12
1

For this compound, state the assay outcome: CSc1c(-c2ccccc2)nc2ccccc2c1C(=O)O
-1

For this compound, state the assay outcome: Cc1ccc2nc(NC(=O)COC(=O)c3ccc(Br)o3)sc2c1
1

For this compound, state the assay outcome: CN(C)S(=O)(=O)c1ccc(NC(=O)COC(=O)c2ccccn2)cc1
-1
